Reference for the values: patent US20250313535A1

target: α4β7 integrin (Homo sapiens (Human), UniProt P13612+P26010); assay: Integrin Adhesion Assay: Protocol 4 (MAdCAM-coated plate, RPMI-8866 cells with stable LOF mutation of the ITGB1 gene); assay type: cell-based; conditions: Protocol 4; RPMI-8866 cells with LOF mutation of ITGB1, MAdCAM; read-out: Mean IC50 α4β7 KO
Sequence (P13612 34-1032): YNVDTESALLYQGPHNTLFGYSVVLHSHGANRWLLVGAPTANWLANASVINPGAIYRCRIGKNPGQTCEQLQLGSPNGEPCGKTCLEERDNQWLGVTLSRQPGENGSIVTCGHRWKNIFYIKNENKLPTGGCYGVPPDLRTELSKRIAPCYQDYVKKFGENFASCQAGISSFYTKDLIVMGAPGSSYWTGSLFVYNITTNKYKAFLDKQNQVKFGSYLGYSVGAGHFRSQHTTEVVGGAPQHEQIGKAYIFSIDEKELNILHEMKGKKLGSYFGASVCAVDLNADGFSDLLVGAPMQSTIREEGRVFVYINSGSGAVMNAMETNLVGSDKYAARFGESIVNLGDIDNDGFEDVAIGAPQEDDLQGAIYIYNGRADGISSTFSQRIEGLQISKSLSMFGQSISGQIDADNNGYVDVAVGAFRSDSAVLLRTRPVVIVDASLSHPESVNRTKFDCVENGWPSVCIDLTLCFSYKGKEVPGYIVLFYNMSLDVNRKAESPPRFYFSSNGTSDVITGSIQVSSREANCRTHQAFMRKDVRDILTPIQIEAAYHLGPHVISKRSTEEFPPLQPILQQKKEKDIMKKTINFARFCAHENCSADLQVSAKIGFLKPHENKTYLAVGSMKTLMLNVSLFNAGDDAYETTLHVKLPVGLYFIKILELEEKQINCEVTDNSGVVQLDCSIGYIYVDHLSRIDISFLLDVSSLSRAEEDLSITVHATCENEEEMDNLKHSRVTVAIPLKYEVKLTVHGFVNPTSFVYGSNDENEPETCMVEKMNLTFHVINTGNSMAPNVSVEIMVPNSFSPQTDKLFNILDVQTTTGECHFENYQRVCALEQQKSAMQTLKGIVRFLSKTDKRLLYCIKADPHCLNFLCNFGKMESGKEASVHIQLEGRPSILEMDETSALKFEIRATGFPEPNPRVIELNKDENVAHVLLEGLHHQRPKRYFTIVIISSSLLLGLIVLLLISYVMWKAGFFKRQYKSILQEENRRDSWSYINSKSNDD
Sequence (P26010 20-798): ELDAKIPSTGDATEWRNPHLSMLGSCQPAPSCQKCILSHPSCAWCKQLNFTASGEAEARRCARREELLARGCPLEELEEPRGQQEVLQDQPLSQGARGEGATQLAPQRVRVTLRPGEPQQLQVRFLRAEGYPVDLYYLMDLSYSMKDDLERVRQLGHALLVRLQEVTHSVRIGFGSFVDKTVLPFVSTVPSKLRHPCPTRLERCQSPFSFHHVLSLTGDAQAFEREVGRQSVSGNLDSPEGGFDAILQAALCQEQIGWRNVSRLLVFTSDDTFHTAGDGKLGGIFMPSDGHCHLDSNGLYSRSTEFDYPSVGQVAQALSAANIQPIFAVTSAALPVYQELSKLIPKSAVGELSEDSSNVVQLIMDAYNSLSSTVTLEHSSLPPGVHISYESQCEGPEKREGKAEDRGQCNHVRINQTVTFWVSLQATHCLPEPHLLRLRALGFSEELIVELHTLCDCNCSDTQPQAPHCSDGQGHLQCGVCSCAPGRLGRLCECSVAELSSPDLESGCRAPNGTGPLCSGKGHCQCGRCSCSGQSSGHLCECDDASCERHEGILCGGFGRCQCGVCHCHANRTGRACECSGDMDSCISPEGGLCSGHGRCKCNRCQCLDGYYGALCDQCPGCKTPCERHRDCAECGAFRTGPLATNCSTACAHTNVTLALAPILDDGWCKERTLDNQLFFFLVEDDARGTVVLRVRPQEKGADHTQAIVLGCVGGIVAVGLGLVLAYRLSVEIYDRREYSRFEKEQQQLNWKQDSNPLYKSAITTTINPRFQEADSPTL
pIC50: −log10 of the molar value.
Overview of reported pIC50 across a group of compounds:

Worked cases, pIC50 given:
[[record]]
compound = "Cn1c(=O)c(-c2cccc3c(C[C@H](NC(=O)c4c(F)cccc4F)C(=O)O)cccc23)c(C(F)(F)F)c2cc(C3CCCO3)ccc21 (stereo partly drawn) [Compound 1046]"
value_kind = "pIC50"
result_value = "6.00 to 7.00"

[[record]]
compound = "O=C(O)[C@H](Cc1cccc2c(-c3ncc(CCN4CCC[C@H](F)C4)c4ccccc34)cccc12)NC(=O)C1(C(F)(F)F)CCN(CC(F)(F)F)CC1 [Compound 978]"
value_kind = "pIC50"
result_value = "> 8.00"

[[record]]
compound = "COc1ccc(CN2CCCC(F)C2)c(OC)c1-c1cccc2c(C[C@H](NC(=O)C3(C(F)(F)F)CCN(CC(F)(F)F)CC3)C(=O)O)cccc12 (stereo partly drawn) [Compound 788]"
value_kind = "pIC50"
result_value = "> 8.00"

[[record]]
compound = "Cc1cccc(F)c1C(=O)N[C@@H](Cc1cccc2c(-c3c(C(F)(F)F)c4cc(CCN(C)C)ccc4n(C)c3=O)cccc12)C(=O)O [Compound 706]"
value_kind = "pIC50"
result_value = "> 8.00"

[[record]]
compound = "O=C(O)[C@H](Cc1cccc2c(-c3ncc(CN4CCCC(F)(F)CC4)c4ccccc34)cccc12)NC(=O)C1(C(F)(F)F)CCN(CC(F)F)CC1 [Compound 915]"
value_kind = "pIC50"
result_value = "> 8.00"


Prompt line: Please look up its pIC50: Cn1c(=O)c(-c2cccc3c(C[C@H](NC(=O)C4(C(F)(F)F)CCN(CC(F)F)CC4)C(=O)O)cccc23)c(C(F)(F)F)c2cc(CN3CCC(F)(F)CC3)ccc21 [Compound 836]
Response line: 7.00 to 8.00
